# Test system: Superantigen positive S. aureus (14)
# Assay Protocol: microbe, parasite or virus in culture
# Applied Conditions: Staphylococcus aureus, 18 h, read-out: MICs 90%
Reported Property: MIC90 (µg/mL)

CC(=O)NC[C@H]1CN(c2ccc(N3CCOCC3)c(F)c2)C(=O)O1    2
CN[C@H](CC(C)C)C(=O)N[C@H]1C(=O)N[C@@H](CC(N)=O)C(=O)N[C@H]2C(=O)N[C@H]3C(=O)N[C@H](C(=O)N[C@H](C(=O)O)c4cc(O)cc(O)c4-c4cc3ccc4O)[C@H](O)c3ccc(c(Cl)c3)Oc3cc2cc(c3O[C@@H]2O[C@H](CO)[C@@H](O)[C@H](O)[C@H]2O[C@H]2C[C@](C)(N)[C@H](O)[C@H](C)O2)Oc2ccc(cc2Cl)[C@H]1O    2
CO[C@H]1/C=C/O[C@@]2(C)Oc3c(C)c(O)c4c(O)c(c(/C=N/N5CCN(C)CC5)c(O)c4c3C2=O)NC(=O)/C(C)=C\C=C\[C@H](C)[C@H](O)[C@@H](C)[C@@H](O)[C@@H](C)[C@H](OC(C)=O)[C@@H]1C    1
CCC[C@@H]1C[C@@H](C(=O)N[C@@H]([C@H]2O[C@H](SC)[C@H](O)[C@@H](O)[C@H]2O)[C@H](C)Cl)N(C)C1    512

----------
# Tested on: Superantigen negative S. aureus (10)
# Assay Protocol: microbe, parasite or virus in culture
# Applied Conditions: Staphylococcus aureus, 18 h, read-out: MICs 90%
Listed here: items and their measured MIC90.
Reported Property: MIC90 (µg/mL)

CN[C@H](CC(C)C)C(=O)N[C@H]1C(=O)N[C@@H](CC(N)=O)C(=O)N[C@H]2C(=O)N[C@H]3C(=O)N[C@H](C(=O)N[C@H](C(=O)O)c4cc(O)cc(O)c4-c4cc3ccc4O)[C@H](O)c3ccc(c(Cl)c3)Oc3cc2cc(c3O[C@@H]2O[C@H](CO)[C@@H](O)[C@H](O)[C@H]2O[C@H]2C[C@](C)(N)[C@H](O)[C@H](C)O2)Oc2ccc(cc2Cl)[C@H]1O    1
CN(C)c1cc(NC(=O)CNC(C)(C)C)c(O)c2c1C[C@H]1C[C@H]3[C@H](N(C)C)C(O)=C(C(N)=O)C(=O)[C@@]3(O)C(O)=C1C2=O    0.5
CO[C@H]1/C=C/O[C@@]2(C)Oc3c(C)c(O)c4c(O)c(c(/C=N/N5CCN(C)CC5)c(O)c4c3C2=O)NC(=O)/C(C)=C\C=C\[C@H](C)[C@H](O)[C@@H](C)[C@@H](O)[C@@H](C)[C@H](OC(C)=O)[C@@H]1C    1
O=C(N[C@H](CO)[C@H](O)c1ccc([N+](=O)[O-])cc1)C(Cl)Cl    32
CCC[C@@H]1C[C@@H](C(=O)N[C@@H]([C@H]2O[C@H](SC)[C@H](O)[C@@H](O)[C@H]2O)[C@H](C)Cl)N(C)C1    32
CC(=O)NC[C@H]1CN(c2ccc(N3CCOCC3)c(F)c2)C(=O)O1    1
CC[C@H]1OC(=O)[C@H](C)[C@@H](O[C@H]2C[C@@](C)(OC)[C@@H](O)[C@H](C)O2)[C@H](C)[C@@H](O[C@@H]2O[C@H](C)C[C@H](N(C)C)[C@H]2O)[C@](C)(O)C[C@@H](C)C(=O)[C@H](C)[C@@H](O)[C@]1(C)O    0.5

All values here come from paper PMC3265250.
